Please go through the items and note down their self-cleavage.
B1: Osa-1-4 twister ribozyme (parent)
chain: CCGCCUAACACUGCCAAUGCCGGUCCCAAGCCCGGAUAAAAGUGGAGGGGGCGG

- Variants of: B1
- EXPERIMENT NOTES: self-cleavage, relative activity (ratio to wild type); higher = more cleavage; co-transcriptional
Numbers only.

Solved entries (count: 10):
Exercise: Form field: reported self-cleavage of C33G G42U
Solution: 0.02

Exercise: Can you share its self-cleavage? I mean this variant: G44A G50A
Solution: 0.71

Exercise: Fill blank: measured self-cleavage of the variant A10C A29C is ____.
Solution: 0.02

Exercise: Give its self-cleavage value. Item: C14U C31G
Solution: 0.06

Exercise: Which value of self-cleavage has been reported for C26G C32U in the records?
Solution: 0.04

Exercise: Using the record for G45A G48A , report its self-cleavage.
Solution: 0.06

Exercise: Endpoint output: self-cleavage of A39C C9G . Value?
Solution: 0.34

Exercise: Consider the variant shown here: G22A U24G What is its recorded self-cleavage?
Solution: 0.13

Exercise: What does the record list as self-cleavage for C14U G35U ?
Solution: 0.21

Exercise: Item G19A U37G has what recorded self-cleavage?
Solution: 1

Batch request: self-cleavage for each of the following variants.
1. G30U G49A
2. A36C U18G
3. G45C G47C
4. G51C
5. A10C G48U
6. A41U U37G
7. C15G G23A

Solution:
1: 0.02; 2: 0.87; 3: 0.05; 4: 0.17; 5: 0.02; 6: 1.02; 7: 0.14
